Quick list: Improvement of EC50 vs 2A8 wt per entry.
system tested: recombinant TFPI of the FXa restoring assay (human, mouse or rat; species not stated for Tables 9 and 10)
assay notes: cell-based or functional assay
Hi! Could you send only the number? It should be in fold, unit omitted.

binder | readout | recorded value
2A8-216 (Fab, V domains shown) VH: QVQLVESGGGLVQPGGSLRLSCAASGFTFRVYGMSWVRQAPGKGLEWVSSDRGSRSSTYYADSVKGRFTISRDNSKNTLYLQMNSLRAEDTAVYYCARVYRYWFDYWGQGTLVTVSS VL: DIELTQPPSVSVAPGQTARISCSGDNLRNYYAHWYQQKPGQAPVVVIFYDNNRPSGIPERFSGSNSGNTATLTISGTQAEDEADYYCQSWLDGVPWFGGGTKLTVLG | Improvement of EC50 vs 2A8 wt | 7.3
2A8-143 (Fab, V domains shown) VH: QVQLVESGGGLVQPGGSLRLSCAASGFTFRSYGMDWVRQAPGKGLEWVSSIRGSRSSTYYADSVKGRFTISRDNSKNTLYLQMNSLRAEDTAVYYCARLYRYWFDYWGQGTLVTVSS VL: DIELTQPPSVSVAPGQTARISCSGDNLRNYYAHWYQQKPGQAPVVVIFYDVNRPSGIPERFSGSNSGNTATLTISGTQAEDEADYYCQSWLDGVPWFGGGTKLTVLG | Improvement of EC50 vs 2A8 wt | 15.8

Now for another entry.
The recorded Improvement of EC50 vs 2A8 wt for entry 2A8-127 (Fab, V domains shown) VH: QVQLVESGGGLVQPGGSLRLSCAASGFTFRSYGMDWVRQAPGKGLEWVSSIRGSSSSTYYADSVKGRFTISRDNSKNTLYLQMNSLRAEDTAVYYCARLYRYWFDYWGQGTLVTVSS VL: DIELTQPPSVSVAPGQTARISCSGDNLRNYYAHWYQQKPGQAPVVVIFYDVNRPSDIPERFSGSNSGNTATLTISGTQAEDEADYYCQSWDDGVPWFGGGTKLTVLG equals 18.2

The measured values listed here are drawn from patent US20120108796A1.
